The measured values listed here are drawn from patent US10562842B2.

System: Enterobacter aerogenes MDR Ea289
methodNotes: MIC of antibiotics ± test compound (MIC ratio), micro-broth dilution
Assay type: cell-based
experimentalConditions: nalidixic acid; compound at MIC/4; Set 2
# key: entry, value: MIC ratio (*) on Ea289 Nal
No unit in the answer, please; the number alone is enough.

Consider the worked cases shown below.
CC(C)=CCCC(C)=CCNCCCNCCCCNCCCN (racemic) = 16
CC(C)=CCC/C(C)=C/CC/C(C)=C/CNCCCN1CCN(CCCN)CC1 = 32
CC(C)=CCC/C(C)=C/CC/C(C)=C/CNCCCCN = 16

Input line: Query MIC ratio (*) on Ea289 Nal on Enterobacter aerogenes MDR Ea289 for CC(C)=CCC/C(C)=C/CC/C(C)=C/CNCCCN
Output line: 16

Input line: Query MIC ratio (*) on Ea289 Nal on Enterobacter aerogenes MDR Ea289 for CC(C)=CCC/C(C)=C/CC/C(C)=C/CNCCCN1CCOCC1
Output line: 8

Input line: Query MIC ratio (*) on Ea289 Nal on Enterobacter aerogenes MDR Ea289 for CC(C)=CCC/C(C)=C/CC/C(C)=C/CNCCCNCCCN
Output line: 8

Input line: Query MIC ratio (*) on Ea289 Nal on Enterobacter aerogenes MDR Ea289 for CC(C)=CCC/C(C)=C/CC/C(C)=C/CNCCCCCN
Output line: 8

Input line: Query MIC ratio (*) on Ea289 Nal on Enterobacter aerogenes MDR Ea289 for CC(C)=CCCC(C)=CCNCCCN(CCCN)CCCN (racemic)
Output line: 8

Input line: Query MIC ratio (*) on Ea289 Nal on Enterobacter aerogenes MDR Ea289 for CC(C)=CCC/C(C)=C/CC/C(C)=C/CNCCCNCCCCN
Output line: 16

Input line: Query MIC ratio (*) on Ea289 Nal on Enterobacter aerogenes MDR Ea289 for CC(C)=CCC/C(C)=C/CC/C(C)=C/CNCCCN(C)CCCN
Output line: 32

Input line: Query MIC ratio (*) on Ea289 Nal on Enterobacter aerogenes MDR Ea289 for CC(C)=CCC/C(C)=C/CC/C(C)=C/CNCCCN(CCCN)CCCN
Output line: 16

Input line: Query MIC ratio (*) on Ea289 Nal on Enterobacter aerogenes MDR Ea289 for CCN(CC)CCNCCCNC/C=C(\C)CCC=C(C)C
Output line: 8

Input line: Query MIC ratio (*) on Ea289 Nal on Enterobacter aerogenes MDR Ea289 for CC(C)=CCC/C(C)=C/CNCCCN(C)CCCN
Output line: 8

Input line: Query MIC ratio (*) on Ea289 Nal on Enterobacter aerogenes MDR Ea289 for CC(C)=CCC/C(C)=C/CC/C(C)=C/CNCCCN1CCCC1
Output line: 16

###

System: Enterobacter aerogenes MDR Ea289
methodNotes: MIC of antibiotics ± test compound (MIC ratio), micro-broth dilution
Type: cell-based
experimentalConditions: chloramphenicol MIC ratio of 8 on Ea289
quantityMeasured: efficient concentration, times lower than the control PAβN

CC(C)=CCC/C(C)=C/CC/C(C)=C/CNCCCN(CCCN)CCCN = about 4.9 times
CC(C)=CCCC(C)=CCNCCCNCCCCNCCCN (racemic) = about 4.9 times
CC(C)=CCCC(C)=CCNCCCN(CCCN)CCCN (racemic) = about 4.9 times
CC(C)=CCC/C(C)=C/CC/C(C)=C/CNCCCNCCCCNCCCN = about 4.9 times

###

# key: entry, value: IC50
System: CHO cells
methodNotes: Toxicity on CHO cultured cells
Format: cell-based
experimentalConditions: Cricetulus griseus; killing of 50% of the CHO cells after 24 hours of incubation
Give the value, in units of mM, as a plain number.

CC(C)=CCC/C(C)=C/CC/C(C)=C/CNCCCNCCCCNCCCN [Compound 8] = 0.726

Input line: Query IC50 on CHO cells for CC(C)=CCC/C(C)=C/CC/C(C)=C/CNCCCN(CCCN)CCCN [Compound 9]
Output line: 0.132

Input line: Query IC50 on CHO cells for CC(C)=CCCC(C)=CCNCCCNCCCCNCCCN (racemic) [Compound 10]
Output line: 2.33

Input line: Query IC50 on CHO cells for CC(C)=CCCC(C)=CCNCCCN(CCCN)CCCN (racemic) [Compound 11]
Output line: 0.282

###

System: Ea289ΔacrB (Ea294)
methodNotes: MIC of antibiotics ± test compound (MIC ratio), micro-broth dilution
Type: cell-based, Enterobacter aerogenes
experimentalConditions: chloramphenicol; compound at MIC/4; Set 1
quantityMeasured: MIC ratio(*) on Ea289ΔacrB Chl
No unit in the answer, please; the number alone is enough.

CC(C)=CCCC(C)=CCNCCCN(CCCN)CCCN (racemic) = 16
CC(C)=CCC/C(C)=C/CC/C(C)=C/CNCCCN(CCCN)CCCN = 4
CC(C)=CCCC(C)=CCNCCCNCCCCNCCCN (racemic) = 16

Moving on to another compound below.
Input line: Query MIC ratio(*) on Ea289ΔacrB Chl on Ea289ΔacrB (Ea294) for CC(C)=CCC/C(C)=C/CC/C(C)=C/CNCCCNCCCCNCCCN
Output line: 2

###

System: BN10055ΔacrB
methodNotes: MIC of antibiotics ± test compound (MIC ratio), micro-broth dilution
Format: cell-based, Salmonella enterica serovar Typhimurium
experimentalConditions: chloramphenicol; compound at MIC/4; Set 1
quantityMeasured: MIC ratio(*) on BN10055ΔacrB Chl
No unit in the answer, please; the number alone is enough.

CC(C)=CCCC(C)=CCNCCCN(CCCN)CCCN (racemic) = 2
CC(C)=CCCC(C)=CCNCCCNCCCCNCCCN (racemic) = 2
CC(C)=CCC/C(C)=C/CC/C(C)=C/CNCCCN(CCCN)CCCN = 2

Moving on to another compound below.
Input line: What MIC ratio(*) on BN10055ΔacrB Chl value was documented for this compound, CC(C)=CCC/C(C)=C/CC/C(C)=C/CNCCCNCCCCNCCCN ?
Output line: 4

###

# key: entry, value: MIC ratio (*) on BN10055 Dox
Tested on: Salmonella Thyphimurium MDR BN10055
methodNotes: MIC of antibiotics ± test compound (MIC ratio), micro-broth dilution
Type: cell-based, Salmonella enterica serovar Typhimurium
experimentalConditions: doxycycline; compound at MIC/4; Set 2
Description: The Enterobacter aerogenes Ea289 strain is a Kans derivative of the MDR clinical isolate Ea27, the acrB mutant, EaEP294, was constructed from Ea289. […] Susceptibilities to antibiotics and compounds were determined in microplates by broth dilution method, as previously described. Minimal Inhibitory Concentrations (MICs) were determined with an inoculum of 10^6 CFU in 200 μL of MH broth containing two-fold serial dilutions of each drug. […]
No unit in the answer, please; the number alone is enough.

Consider the worked cases shown below.
CC(C)=CCCC(C)=CCNCCCN(CCCN)CCCN (racemic) [Compound 11] = 16
CC(C)=CCC/C(C)=C/CC/C(C)=C/CNCCCCN [Compound 17] = 16
CC(C)=CCC/C(C)=C/CC/C(C)=C/CNCCCCCN [Compound 18] = 16

Input line: What MIC ratio (*) on BN10055 Dox value was documented for this molecule, CC(C)=CCC/C(C)=C/CC/C(C)=C/CNCCCNCCCN [Compound 20] ?
Output line: 32

Input line: What MIC ratio (*) on BN10055 Dox value was documented for this molecule, CC(C)=CCC/C(C)=C/CC/C(C)=C/CNCCCNCCCCNCCCN [Compound 8] ?
Output line: 8

Input line: What MIC ratio (*) on BN10055 Dox value was documented for this molecule, CC(C)=CCCC(C)=CCNCCCNCCCCNCCCN (racemic) [Compound 10] ?
Output line: 16

Input line: What MIC ratio (*) on BN10055 Dox value was documented for this molecule, CC(C)=CCC/C(C)=C/CC/C(C)=C/CNCCCN [Compound 16] ?
Output line: 32

Input line: What MIC ratio (*) on BN10055 Dox value was documented for this molecule, CC(C)=CCC/C(C)=C/CC/C(C)=C/CNCCCN1CCOCC1 [Compound 23] ?
Output line: 16

Input line: What MIC ratio (*) on BN10055 Dox value was documented for this molecule, CC(C)=CCC/C(C)=C/CC/C(C)=C/CNCCCN(C)CCCN [Compound 14] ?
Output line: 64
